biological target: T1, soluble human insulin receptor-immunoglobulin heavy chain chimera (human, UniProt P06213 28-956); assay: phage ELISA ratios compared
T1 construct: extracellular domain; Heterotetramer; also called IR; sIR-Fc; not shown: immunoglobulin heavy chain constant domains replacing the transmembrane and intr
OBSERVED_PROPERTY: IR/IGF-1R ratio comparison
Output: the number by itself.

Solved entries (count: 4):
AVRATRFDEAFYDWFVRQISDGQGNK [H2CA-4-F6-IGFR] | 0.2
ASSASGFYELLQRLAGLGLEV [20E2B-3-C4-IGFR] | 0.2
EAASLGSQDRNFYDWFVRQVV [A6S-2-D11-IR] | 0.4
VGYQGQGDENFYDWFIRQVSGRLGVQ [H2CA-4-F5-IGFR] | 0.1

In: What value of IR/IGF-1R ratio comparison has been recorded for this entry: RFDPFYSYFVNLLGASA [NNRPγ-4-A7-IR]
Out: 0.2

In: Now consider QSPVGSSHEDFYDWFFRQVAQSGAHQ [H2CA-3-D6-IGFR] .
Out: 0.3

In: Now consider AICDAGFHEHFYDWFALQVSDCGRQS [H2CA-2-B11-IGFR] .
Out: 0.3

In: Now consider QGNVLDFYGWIGRLLAKQGSD [20E2B-3-D12-IGFR] .
Out: 0.1

In: Now consider AQPCGGFYGLLEQLVGRSVCD [20E2B-4-F10-IGFR] .
Out: 0.1

In: Now consider LGYQEPFQQNFYDWFVRQVSGAENAG [H2CA-3-E8-IGFR] .
Out: 0.3

In: Now consider LKDGFYDYFWQRLHLGS [NNRPγ-4-B11-IR] .
Out: 0.1
